Hey, just so you know, these numbers are from paper PMC5615838.

Assay: pharmacokinetics and oral bioavailability of S6821
Assay type: in vivo, rat
Details: male, Sprague-Dawley, rat, plasma, po, 100 mg/kg
Experimental Readout: bioavailability

-- ask Query (compound): Cc1noc(C)c1Cn1cc(N2C(=O)CN(Cc3cccc(O)c3)C2=O)cn1 [S6821] ; field requested: bioavailability
-- reply 2.55%

###

Assay: toxicokinetics in 90-day toxicity study
Type: in vivo, rat
Conditions: female, Sprague-Dawley, rat, plasma, po, 30 mg/kg, AUC0-24h, Week 6, 30 mg/kg bw, F
Experimental Readout: AUC(0-t) (ng·h/mL)
Value expressed in ng·h/mL; do not type the unit.

-- ask Query (compound): Cc1noc(C)c1Cn1cc(N2C(=O)CN(Cc3cccc(O)c3)C2=O)cn1 ; field requested: AUC(0-t)
-- reply 331

###

Assay: toxicokinetics in 90-day toxicity study
Format: in vivo, rat
Settings: male, Sprague-Dawley [Crl:CD(SD)], rat, plasma, po, 10 mg/kg, AUC0-24h, Day 7, 10 mg/kg bw, M
Experimental Readout: AUC(0-t) (ng·h/mL)
Value expressed in ng·h/mL; do not type the unit.

-- ask Query (molecule): Cc1noc(C)c1Cn1cc(N2C(=O)CN(Cc3cccc(O)c3)C2=O)cn1 ; field requested: AUC(0-t)
-- reply 118

###

Test: pharmacokinetics and oral bioavailability of S6821
Assay type: in vivo, rat
Conditions: male, Sprague-Dawley, rat, plasma, po, 30 mg/kg
Experimental Readout: half-life (h)
Value expressed in h; do not type the unit.

-- ask Query (molecule): Cc1noc(C)c1Cn1cc(N2C(=O)CN(Cc3cccc(O)c3)C2=O)cn1 ; field requested: half-life
-- reply 7.1

###

Assay: toxicokinetics in 90-day toxicity study
Format: in vivo, rat
Settings: female, Sprague-Dawley [Crl:CD(SD)], rat, plasma, po, 10 mg/kg, AUC0-24h, Week 13, 10 mg/kg bw, F
Experimental Readout: AUC(0-t) (ng·h/mL)
Value expressed in ng·h/mL; do not type the unit.

-- ask Query (molecule): Cc1noc(C)c1Cn1cc(N2C(=O)CN(Cc3cccc(O)c3)C2=O)cn1 ; field requested: AUC(0-t)
-- reply 125

###

Test: pharmacokinetics and oral bioavailability of S6821
Assay type: in vivo, rat
Settings: male, Sprague-Dawley, rat, plasma, iv, 1 mg/kg
Experimental Readout: half-life (min)
Value expressed in min; do not type the unit.

-- ask Query (compound): Cc1noc(C)c1Cn1cc(N2C(=O)CN(Cc3cccc(O)c3)C2=O)cn1 ; field requested: half-life
-- reply 6

###

Assay: proof of exposure in 28-day study, plasma concentrations
Assay type: in vivo, rat
Conditions: female, Crl:CD(SD) (Sprague-Dawley), rat, plasma (peripheral blood), oral, 100 mg/kg bw/day
Experimental Readout: concentration at 29 day (ng/mL)
Value expressed in ng/mL; do not type the unit.

-- ask Query (compound): Cc1noc(C)c1Cn1cc(N2C(=O)N(Cc3cccc(O)c3)C(C)(C)C2=O)cn1 [S7958] ; field requested: concentration at 29 day
-- reply 136

###

Assay: proof of exposure in 28-day study, plasma concentrations
Assay type: in vivo, rat
Conditions: male, Crl:CD(SD) (Sprague-Dawley), rat, plasma (peripheral blood), oral, 10 mg/kg bw/day
Experimental Readout: concentration at 29 day (ng/mL)
Value expressed in ng/mL; do not type the unit.

-- ask Query (compound): Cc1noc(C)c1Cn1cc(N2C(=O)N(Cc3cccc(O)c3)C(C)(C)C2=O)cn1 [S7958] ; field requested: concentration at 29 day
-- reply 0.441

###

Molecular target: CYP2C9 (Homo sapiens, UniProt P11712)
Sequence (P11712 whole entry): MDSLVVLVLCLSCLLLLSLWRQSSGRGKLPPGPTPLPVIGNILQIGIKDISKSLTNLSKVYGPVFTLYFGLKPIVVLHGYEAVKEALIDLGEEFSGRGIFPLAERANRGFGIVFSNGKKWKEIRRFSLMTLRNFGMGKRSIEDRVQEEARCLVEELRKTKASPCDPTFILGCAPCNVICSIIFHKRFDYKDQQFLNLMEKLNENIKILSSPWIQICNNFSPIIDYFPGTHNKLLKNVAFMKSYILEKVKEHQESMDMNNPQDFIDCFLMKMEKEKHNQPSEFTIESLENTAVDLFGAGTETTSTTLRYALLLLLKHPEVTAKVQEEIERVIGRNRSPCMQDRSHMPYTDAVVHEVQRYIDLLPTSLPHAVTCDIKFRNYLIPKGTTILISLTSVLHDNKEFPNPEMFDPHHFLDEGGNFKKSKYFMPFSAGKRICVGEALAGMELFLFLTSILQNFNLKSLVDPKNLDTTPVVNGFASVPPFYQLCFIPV
Experimental Readout: pIC50
The read-out pIC50 is expressed as -log10 of concentration in moles per litre.

-- ask Query (compound): Cc1noc(C)c1Cn1cc(N2C(=O)N(Cc3cccc(O)c3)C(C)(C)C2=O)cn1 [S7958] ; field requested: pIC50
-- reply 5.06

###

Experiment: pharmacokinetics and oral bioavailability of S6821
Format: in vivo, rat
Conditions: male, Sprague-Dawley, rat, plasma, po, 100 mg/kg
Experimental Readout: AUC(0-t) (ng·h/mL)
Value expressed in ng·h/mL; do not type the unit.

-- ask Query (compound): Cc1noc(C)c1Cn1cc(N2C(=O)CN(Cc3cccc(O)c3)C2=O)cn1 ; field requested: AUC(0-t)
-- reply 410

###

Experiment: toxicokinetics in 90-day toxicity study
Format: in vivo, rat
Conditions: female, Sprague-Dawley, rat, plasma, po, 100 mg/kg, AUC0-24h, Week 6, 100 mg/kg bw, F
Experimental Readout: AUC(0-t) (ng·h/mL)
Value expressed in ng·h/mL; do not type the unit.

-- ask Query (molecule): Cc1noc(C)c1Cn1cc(N2C(=O)CN(Cc3cccc(O)c3)C2=O)cn1 ; field requested: AUC(0-t)
-- reply 1300

###

Test: toxicokinetics in 90-day toxicity study
Assay type: in vivo, rat
Conditions: female, Sprague-Dawley, rat, plasma, po, 10 mg/kg, Cmax, Week 6, 10 mg/kg bw, F
Experimental Readout: Cmax (ng/mL)
Value expressed in ng/mL; do not type the unit.

-- ask Query (compound): Cc1noc(C)c1Cn1cc(N2C(=O)CN(Cc3cccc(O)c3)C2=O)cn1 ; field requested: Cmax
-- reply 6.34

###

Assay: pharmacokinetics and oral bioavailability of S6821
Format: in vivo, rat
Settings: male, Sprague-Dawley, rat, plasma, po, 100 mg/kg
Experimental Readout: Tmax (min)
Value expressed in min; do not type the unit.

-- ask Query (molecule): Cc1noc(C)c1Cn1cc(N2C(=O)CN(Cc3cccc(O)c3)C2=O)cn1 ; field requested: Tmax
-- reply 30

###

Assay: pharmacokinetics and oral bioavailability of S6821
Format: in vivo, rat
Details: male, Sprague-Dawley, rat, plasma, po, 100 mg/kg
Experimental Readout: Cmax
Report the figure along with its unit, number first.

-- ask Query (compound): Cc1noc(C)c1Cn1cc(N2C(=O)CN(Cc3cccc(O)c3)C2=O)cn1 ; field requested: Cmax
-- reply 68.1 ng/mL

###

Test: toxicokinetics in 90-day toxicity study
Type: in vivo, rat
Conditions: male, Sprague-Dawley [Crl:CD(SD)], rat, plasma, po, 30 mg/kg, AUC0-24h, Day 7, 30 mg/kg bw, M
Experimental Readout: AUC(0-t) (ng·h/mL)
Value expressed in ng·h/mL; do not type the unit.

-- ask Query (molecule): Cc1noc(C)c1Cn1cc(N2C(=O)CN(Cc3cccc(O)c3)C2=O)cn1 [S6821] ; field requested: AUC(0-t)
-- reply 295

###

Assay: proof of exposure in 28-day study, plasma concentrations
Format: in vivo, rat
Settings: female, Crl:CD(SD) (Sprague-Dawley), rat, plasma (peripheral blood), oral, 30 mg/kg bw/day
Experimental Readout: concentration at 29 day (ng/mL)
Value expressed in ng/mL; do not type the unit.

-- ask Query (molecule): Cc1noc(C)c1Cn1cc(N2C(=O)N(Cc3cccc(O)c3)C(C)(C)C2=O)cn1 [S7958] ; field requested: concentration at 29 day
-- reply 66.7

###

Experiment: pharmacokinetics and oral bioavailability of S6821
Assay type: in vivo, rat
Conditions: male, Sprague-Dawley, rat, plasma, po, 30 mg/kg
Experimental Readout: bioavailability (%)
Value expressed in %; do not type the unit.

-- ask Query (molecule): Cc1noc(C)c1Cn1cc(N2C(=O)CN(Cc3cccc(O)c3)C2=O)cn1 ; field requested: bioavailability
-- reply 4.16

###

Test: toxicokinetics in 90-day toxicity study
Format: in vivo, rat
Settings: female, Sprague-Dawley [Crl:CD(SD)], rat, plasma, po, 100 mg/kg, AUC0-24h, Day 7, 100 mg/kg bw, F
Experimental Readout: AUC(0-t) (ng·h/mL)
Value expressed in ng·h/mL; do not type the unit.

-- ask Query (molecule): Cc1noc(C)c1Cn1cc(N2C(=O)CN(Cc3cccc(O)c3)C2=O)cn1 ; field requested: AUC(0-t)
-- reply 1500

###

Experiment: toxicokinetics in 90-day toxicity study
Format: in vivo, rat
Details: male, Sprague-Dawley, rat, plasma, po, 30 mg/kg, AUC0-24h, Week 6, 30 mg/kg bw, M
Experimental Readout: AUC(0-t) (ng·h/mL)
Value expressed in ng·h/mL; do not type the unit.

-- ask Query (compound): Cc1noc(C)c1Cn1cc(N2C(=O)CN(Cc3cccc(O)c3)C2=O)cn1 ; field requested: AUC(0-t)
-- reply 293

###

Test: toxicokinetics in 90-day toxicity study
Assay type: in vivo, rat
Conditions: male, Sprague-Dawley, rat, plasma, po, 30 mg/kg, Cmax, Week 6, 30 mg/kg bw, M
Experimental Readout: Cmax

-- ask Query (compound): Cc1noc(C)c1Cn1cc(N2C(=O)CN(Cc3cccc(O)c3)C2=O)cn1 ; field requested: Cmax
-- reply 24.6 ng/mL

###

Experiment: pharmacokinetics and oral bioavailability of S6821
Type: in vivo, rat
Details: male, Sprague-Dawley, rat, plasma, po, 30 mg/kg
Experimental Readout: Tmax (min)
Value expressed in min; do not type the unit.

-- ask Query (compound): Cc1noc(C)c1Cn1cc(N2C(=O)CN(Cc3cccc(O)c3)C2=O)cn1 [S6821] ; field requested: Tmax
-- reply 30
